Reported pIC50 values for the following molecules.
# protocol-details: Inhibition of protein phosphatase 2A in mouse FL5.12 cells assessed as reduction in cell viability incubated for 48 hrs by propidium iodide staining based flow cytometric analysis
# setup-conditions: FL5.12, 48 h
pIC50: −log10 of the molar value.

>  <molecule>
CCCCCCCCc1ccc([C@H]2CCN[C@@H]2COCCCC(O)c2cccnc2)cc1.Cl (stereo not given in full)

>  <pIC50>
5.62

$$$$
>  <molecule>
OCCN1CCN(CCCN2c3ccccc3Sc3ccc(Cl)cc32)CC1 [PERPHENAZINE]

>  <pIC50>
5.32

$$$$
>  <molecule>
CCCCCCCCc1ccc([C@H]2CCN[C@@H]2CO)cc1.Cl

>  <pIC50>
5.74

$$$$
>  <molecule>
CCCCCCCCc1ccc([C@H]2CCN[C@@H]2COCCCC(O)c2cnc(OC)nc2OC)cc1.Cl (stereo not given in full)

>  <pIC50>
5.57

$$$$
>  <molecule>
CCCCCCCCc1ccc([C@H]2CCN[C@@H]2COCCCCN2c3ccccc3Oc3ccccc32)cc1.Cl

>  <pIC50>
5.24

$$$$
>  <molecule>
CCCCCCCCc1ccc([C@H]2CCN[C@@H]2COCCCCc2cccnc2)cc1.Cl

>  <pIC50>
5.68

$$$$
>  <molecule>
O=S(=O)(N[C@@H]1CCC[C@H](N2c3ccccc3Oc3ccccc32)[C@H]1O)c1ccc(OC(F)(F)F)cc1

>  <pIC50>
4.82

$$$$
>  <molecule>
CCCCCCCCc1ccc([C@H]2CCN[C@@H]2COCCCCCN2c3ccccc3Sc3ccccc32)cc1.Cl

>  <pIC50>
5.12

$$$$
>  <molecule>
CCCCCCCCc1ccc([C@H]2CCN[C@@H]2COCCCN2c3ccccc3Oc3ccccc32)cc1.Cl

>  <pIC50>
5.34

$$$$
>  <molecule>
CCCCCCCCc1ccc([C@H]2CCN[C@@H]2COCCCCCN2c3ccccc3Oc3ccccc32)cc1.Cl

>  <pIC50>
5.07

$$$$
